molecular target: T1, human ROR1-hFc fusion protein (extracellular domain) (human); assay: SPR, ROR1-hFc on chip
T1 construct: Whole entry 'human ROR1-Fc (CHO)'; also called hROR1; huROR1-Fc
T1 sequence (chain, as listed by the source limits assumed): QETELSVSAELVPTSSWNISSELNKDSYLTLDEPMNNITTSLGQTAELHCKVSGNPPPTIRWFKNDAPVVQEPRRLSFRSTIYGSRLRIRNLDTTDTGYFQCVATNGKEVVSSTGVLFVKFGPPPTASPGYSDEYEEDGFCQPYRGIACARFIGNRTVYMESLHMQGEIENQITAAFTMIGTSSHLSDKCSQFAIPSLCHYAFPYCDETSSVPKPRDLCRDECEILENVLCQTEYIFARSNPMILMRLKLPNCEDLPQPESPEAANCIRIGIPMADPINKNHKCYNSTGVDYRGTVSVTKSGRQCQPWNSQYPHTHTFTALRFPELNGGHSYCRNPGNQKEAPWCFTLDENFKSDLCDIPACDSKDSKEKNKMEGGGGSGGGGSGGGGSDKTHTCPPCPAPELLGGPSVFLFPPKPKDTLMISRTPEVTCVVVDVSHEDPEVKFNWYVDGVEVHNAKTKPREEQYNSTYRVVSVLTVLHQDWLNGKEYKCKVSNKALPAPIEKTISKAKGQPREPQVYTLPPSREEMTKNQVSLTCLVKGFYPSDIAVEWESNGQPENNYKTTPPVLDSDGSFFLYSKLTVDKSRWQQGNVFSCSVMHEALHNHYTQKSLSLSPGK
Listing of recorded kon by entry.

>  <BINDER>
P3A1 dimer, no tag (VNAR) TRVDQTPRTATKETGESLTINCVLTDTSYGLYSTSWFRKNPGTTDWERMSIGGRYVESVNKGAKSFSLRIKDLTVADSATYYCKAREARHPWLRQWYDGAGTVLTVNGGGGSGGGGSGGGGSGGGGSGGGGSTRVDQTPRTATKETGESLTINCVLTDTSYGLYSTSWFRKNPGTTDWERMSIGGRYVESVNKGAKSFSLRIKDLTVADSATYYCKAREARHPWLRQWYDGAGTVLTVN

>  <kon, M⁻¹ s⁻¹>
1.67e+06

$$$$
>  <BINDER>
P3A1 his myc (VNAR, VNAR; also called P3A1 6xHis myc) VNAR: TRVDQTPRTATKETGESLTINCVLTDTSYGLYSTSWFRKNPGTTDWERMSIGGRYVESVNKGAKSFSLRIKDLTVADSATYYCKAREARHPWLRQWYDGAGTVLTVNQ

>  <kon, M⁻¹ s⁻¹>
980000

$$$$
>  <BINDER>
P3A1-[G4S]5-P3A1 his myc (VNAR, VNAR homodimer by genetic fusion; also called P3A1-P3A1; P3A1 dimer) TRVDQTPRTATKETGESLTINCVLTDTSYGLYSTSWFRKNPGTTDWERMSIGGRYVESVNKGAKSFSLRIKDLTVADSATYYCKAREARHPWLRQWYDGAGTVLTVNGGGGSGGGGSGGGGSGGGGSGGGGSTRVDQTPRTATKETGESLTINCVLTDTSYGLYSTSWFRKNPGTTDWERMSIGGRYVESVNKGAKSFSLRIKDLTVADSATYYCKAREARHPWLRQWYDGAGTVLTVNQASGAHHHHHHGAEFEQKLISEEDL

>  <kon, M⁻¹ s⁻¹>
2.08e+06

$$$$
>  <BINDER>
P3A1 his (VNAR, VNAR; also called P3A1 6xHis) VNAR: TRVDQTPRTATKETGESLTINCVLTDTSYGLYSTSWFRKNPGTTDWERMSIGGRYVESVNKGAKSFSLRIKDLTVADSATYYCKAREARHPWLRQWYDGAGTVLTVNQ

>  <kon, M⁻¹ s⁻¹>
2.92e+06

$$$$
